- Tested on: HEL;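 also: growth inhibition of HEL cells, read out with a cell viability assay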
- protocol_notes: cells
- Type: functional, cell-based, Homo sapiens
- experimental_context: Homo sapiens, HEL
- Description: SANGER: Inhibition of human HEL cell growth in a cell viability assay.
readout_label: IC50

Here is how some compounds turned out for IC50.
What the record says about COC(=O)[C@H](CCSC)NC(=O)c1ccc(NC[C@@H](N)CS)cc1-c1ccccc1 : IC50 is > 1020 nM

What the record says about Cc1ccc(C(=O)Nc2ccc(CN3CCN(C)CC3)c(C(F)(F)F)c2)cc1C#Cc1cnc2cccnn12 [PONATINIB] : IC50 is > 512 nM

What the record says about NC1(c2ccc(-c3nc4ccn5c(=O)[nH]nc5c4cc3-c3ccccc3)cc2)CCC1 [MK-2206] : IC50 is > 4000 nM

Provide reported IC50 for each item, in the same order as listed.
1. C[C@@H](Oc1cc(-c2cnn(C3CCNCC3)c2)cnc1N)c1c(Cl)ccc(F)c1Cl [CRIZOTINIB]
2. O=S(=O)(O)c1ccc2cc(/N=N/c3cc(S(=O)(=O)O)c4cccnc4c3O)ccc2c1
3. NC(=O)c1cccc(-c2cc(Nc3ccc(OC(F)(F)F)cc3)ncn2)c1

> 2000 nM
> 16000 nM
> 1280 nM

###

What pIC50 was measured for each of the following?
- System: CAS-1;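 also: growth inhibition of CAS-1 cells, measured with a cell viability assay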
- protocol_notes: cells
- Format: functional, cell-based, Homo sapiens
- experimental_context: Homo sapiens, CAS-1
- Description: SANGER: Inhibition of human CAS-1 cell growth in a cell viability assay.
pIC50: −log10 of the molar value.

Here is how some compounds turned out for pIC50.
Per the reported CAS-1 data, CC1=C(/C=C/C(C)=C/C=C/C(C)=C/C(=O)O)C(C)(C)CCC1 has pIC50 of < 5.00

Per the reported CAS-1 data, C[C@@H](Oc1cc(-c2cnn(C3CCNCC3)c2)cnc1N)c1c(Cl)ccc(F)c1Cl has pIC50 of < 5.70

Per the reported CAS-1 data, CN(C)CCOc1ccc(-c2nc(-c3ccncc3)c(-c3ccc4c(c3)CC/C4=N\O)[nH]2)cc1 has pIC50 of < 5.30

Now for another entry.
Per the reported CAS-1 data, OC[C@H](Cc1ccccc1)Nc1nc(Oc2ccc3c(c2)CCC3)nc2c1ncn2Cc1ccc(-c2ccccc2)cc1 has pIC50 of < 4.99

###

What pIC50 was measured for each of the following?
- Tested on: NCI-H2347
- protocol_notes: cells
- Format: functional, cell-based
- experimental_context: Homo sapiens
- Description: SANGER: Inhibition of human NCI-H2347 cell growth in a cell viability assay.
pIC50: −log10 of the molar value.

Here is how some compounds turned out for pIC50.
Per the reported NCI-H2347 data, COC(=O)[C@H](CCSC)NC(=O)c1ccc(NC[C@@H](N)CS)cc1-c1ccccc1 has pIC50 of < 5.99

Per the reported NCI-H2347 data, COc1ccc(-c2cc3nccn3c(Nc3ncccc3C(N)=O)n2)cc1OC has pIC50 of < 5.10

Per the reported NCI-H2347 data, NC1(c2ccc(-c3nc4ccn5c(=O)[nH]nc5c4cc3-c3ccccc3)cc2)CCC1 has pIC50 of < 5.40

Continuing:
Per the reported NCI-H2347 data, CC1(C)CCC(c2ccc(Cl)cc2)=C(CN2CCN(c3ccc(C(=O)NS(=O)(=O)c4ccc(N[C@H](CCN5CCOCC5)CSc5ccccc5)c(S(=O)(=O)C(F)(F)F)c4)cc3)CC2)C1 has pIC50 of < 5.70

###

- System: SF-126
- protocol_notes: cells
- Assay type: functional, cell-based, Homo sapiens
- experimental_context: Homo sapiens, SF-126
- Description: SANGER: Inhibition of human SF126 cell growth in a cell viability assay.
pIC50: −log10 of the molar value.
What pIC50 was measured for each of the following?

Here is how some molecules turned out for pIC50.
What the record says about NC(=O)c1cccc(-c2cc(Nc3ccc(OC(F)(F)F)cc3)ncn2)c1 : pIC50 is < 5.89

What the record says about O=C1NC(=O)c2c1c(-c1ccccc1Cl)cc1[nH]c3ccc(O)cc3c21 : pIC50 is < 5.70

Now for another entry.
What the record says about CC1=C(/C=C/C(C)=C/C=C/C(C)=C/C(=O)O)C(C)(C)CCC1 [TRETINOIN] : pIC50 is < 5.00

// provenance: ChEMBL document CHEMBL1201861
